Where these numbers come from: PubChem BioAssay (NCATS)

# Test system: PC15
# Assay overview: qHTS profiling for inhibitors of Plasmodium falciparum proliferation (AID 504749); further: nearly all actives have a fitted effect of over 60% in size
# Test parameters: P. falciparum in erythrocytes, SYBR Green DNA, 72 h; series mostly up to 28.7 µM
# Description: NIH National Institute of Allergy and Infectious Diseases [NIAID] NIH Chemical Genomics Center [NCGC] […] Because mature erythrocytes lack DNA, only Plasmodium-derived DNA is detected. NCGC Assay Protocol Summary: The SYBR Green viability assay was adapted from a method described previously (Plouffe et al., 2008). […] The following morning, fluorescence intensity at 485(14) nm excitation and 535(25) nm emission wavelengths was measured on an EnVision (Perkin Elmer) plate reader. […]
Results filed as inconclusive are left out. Calls of active or inactive are those of the source. The call rests on the fitted dose curve; in most records, active means well fitted inhibition curve with a large enough effect; inconclusive means small, poorly fitted or top-dose-only effect; inactive means flat fitted curve, though single readings scatter.

Molecule	Tested target	outcome
CN1CCN(c2cc3c(nn2)Oc2ccccc2N3C)CC1	PC15	inactive
Nc1ccc(C(=O)O)c(O)c1	PC15	inactive
CC(C(=O)O)c1ccc2c(c1)[nH]c1ccc(Cl)cc12 (stereo not given)	PC15	inactive
c1ccc2sc(SN3CCOCC3)nc2c1	PC15	inactive
C=CCN1C(=O)C(CC(C)C)NC1=S (stereo not given)	PC15	inactive

----------
# Tested target: Guanine nucleotide-binding protein G(i) subunit alpha-1 (Homo sapiens)
# Assay overview: qHTS Assay for Inhibitors of RGS12 GoLoco Motif Activity (Green Fluorophore) (AID 879);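 further: negative values mean loss of peptide binding seen as reduced polarization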
# Test parameters: Galphai1/FITC-RGS12 GoLoco peptide, fluorescence polarization; series mostly up to 57.1 µM
Activity calls are given as the source filed them. Calls come from the whole dose curve; as a rule, active = well fitted curve in the direction sought with a large enough effect; inconclusive = small, poorly fitted or top-dose-only effect, or another doubt; inactive = no such curve, though single readings can be large or run the other way.

Smiles notation	outcome
CN(C)C(N)=NCCC[C@H](N)C(=O)O	inactive
NC[C@@H]1O[C@H](C23CC4CC(CC(C4)C2)C3)Cc2c1ccc(O)c2O	inactive
CN1CCc2cc(NC(=O)Nc3cccnc3)ccc21	inactive
N#C/C(=C\c1ccc(O)c(O)c1)C(=O)NCCCc1ccccc1	inactive
CC(C)NC[C@H](O)COc1cccc2[nH]ccc12	inactive
CCCN(CC1CC1)c1nc(C)nc(Nc2c(Cl)cc(Cl)cc2Cl)c1Cl	inactive
O=C(O)[C@@H]1C[C@@H](C(=O)O)N1	inactive
CC1(C)CCC=[N+]1[O-]	inactive
C[N+]1(C)CCC(OC(=O)C(c2ccccc2)c2ccccc2)CC1	inactive
NC(N)=NC(=O)c1nc(Cl)c(N2CCCCCC2)nc1N	inactive
Cc1cc(NC(=O)Nc2ccc3c(ccn3C)c2)sn1	inactive
Fc1ccc(C(OCCCc2cnc[nH]2)c2ccc(F)cc2)cc1	inactive

----------
# System: CP315
# Assay overview: qHTS profiling for inhibitors of Plasmodium falciparum proliferation (AID 504749); further: nearly all actives have a fitted effect of over 60% in size
# Test parameters: P. falciparum in erythrocytes, SYBR Green DNA, 72 h; series mostly up to 28.7 µM
Inconclusive results are not listed. Activity calls are given as the source filed them. Calls come from the whole dose curve; as a rule, active = well fitted inhibition curve with a large enough effect; inconclusive = small, poorly fitted or top-dose-only effect; inactive = flat fitted curve, though single readings scatter.
Possible outcomes: t = active, f = inactive

Compound	Assigned class
CCCSc1ccc2nc(NC(=O)OC)[nH]c2c1	f
CCCC(=O)OC[C@@H](OC(=O)CCC)[C@@H](OC(=O)CCC)[C@H](Cn1c2nc(=O)[nH]c(=O)c-2nc2cc(C)c(C)cc21)OC(=O)CCC	f
Cc1ccc(O)c(-n2nc3ccccc3n2)c1	f
CCCCCC[C@@H](O)C/C=C\CCCCCCCC(=O)O	f
Cc1[nH]cnc1CN1CCc2c(c3ccccc3n2C)C1=O	f
O=C(/C=C/c1ccccc1)NCCO	f
COc1ccc(/C=C/C(=O)Nc2ccccc2C(=O)O)cc1OC	f
NC(=O)C(c1ccccc1)(c1ccccc1)[C@@H]1CCN(CCc2ccc3c(c2)CCO3)C1	f
COc1cc(CNC(=O)CCCC/C=C/C(C)C)ccc1O	f
CC(N)C(=O)OC(C)(C)Cc1ccc(Cl)cc1 (centres undefined)	f
CN1[C@@H](CC(=O)c2ccccc2)CCC[C@H]1C[C@H](O)c1ccccc1	f
Nc1cc(-c2ccncc2)c[nH]c1=O	f
Cc1ccc(C(=O)c2ccc(CC(=O)O)n2C)cc1	f
[O-][n+]1ccccc1SSc1cccc[n+]1[O-]	t
O=C(O)/C=C/C(O)c1ccc(Cl)cc1 (centres undefined)	f
Nc1ccc(O)c(C(=O)O)c1	f
O=C(Nc1ccc(C(=O)O)c(O)c1)c1ccccc1	f
Nc1ccc(C(=O)O)c(O)c1	f
Cc1ccccc1CNc1ncnc2c1ncn2C1OC(CO)C(O)C1O (centres undefined)	f
CC1OC1P(=O)(O)O (centres undefined)	f
N=c1ccn2c(n1)O[C@H]1[C@H](O)[C@@H](CO)O[C@H]12	f
CC1(C)[C@@H](O)CC[C@]2(C)[C@H]3C(=O)C=C4[C@@H]5C[C@@](C)(C(=O)O)CC[C@]5(C)CC[C@@]4(C)[C@]3(C)CC[C@@H]12	f
CC1(C)C[C@@H]1C(=O)N/C(=C\CCCCSC[C@H](N)C(=O)O)C(=O)O	f
CN1[C@@H]2CC[C@H]1CC(OC(c1ccccc1)c1ccccc1)C2 (some centres undefined)	f
CC1(C)S[C@@H]2[C@H](NC(=O)[C@H](NC(=O)N3CCN(S(C)(=O)=O)C3=O)c3ccccc3)C(=O)N2[C@H]1C(=O)O	f
Nc1c(CC(=O)O)cccc1C(=O)c1ccc(Br)cc1	f
CCCCCCCCCCCCCCCC(=O)OC(C)C	f
O=C(O)Cc1ccc(-c2ccccc2)cc1	f
CCCCC[C@H](O)/C=C/[C@@H]1[C@@H](C/C=C\CCCC(=O)O)[C@@H](O)C[C@H]1O	f
CN1CCN(c2cc3c(nn2)Oc2ccccc2N3C)CC1	f
Cc1nc2ccccc2n1Cc1ccc(Cl)cc1	f
CC(C(=O)O)c1ccc2c(c1)[nH]c1ccc(Cl)cc12 (centres undefined)	f
Cc1c(Nc2ncccc2C(=O)O)cccc1C(F)(F)F	f
C#C[C@]1(O)CC[C@H]2[C@@H]3CCc4cc(O)ccc4[C@H]3CC[C@@]21C	f
C=CC(N)CCC(=O)O (centres undefined)	f
CCCCCCCCCCCCCCCCCC(=O)O	f
Cc1cc(O)c2ccccc2c1O	f
Oc1c(Br)cc(Br)c2cccnc12	f
COc1ccc(-c2cc(=S)ss2)cc1	f
CCOc1ccc2nc(S(N)(=O)=O)sc2c1	f
CN1[C@@H]2CC[C@H]1CC(OC(=O)C(CO)c1ccccc1)C2 (some centres undefined)	f
CCCCCCCCCCCC(=O)[O][Sn]([CH2]CCC)([CH2]CCC)[O]C(=O)CCCCCCCCCCC	f
COc1cc(/C=C/C(=O)N2CCN(CC(=O)N3CCCC3)CC2)cc(OC)c1OC	f
O=C(OCc1ccccc1)c1ccccc1	f

----------
# Tested target: M-phase phosphoprotein 8 (Homo sapiens)
# Assay overview: qHTS Validation Assay for Inhibitors for MPP8 Chromodomain Interactions with Methylated Histone Tails (AID 488949); further: nearly all actives have a fitted effect of over 55% in size
# Test parameters: AlphaScreen MPP8 binding to H3K9me3 peptide; series mostly up to 57.1 µM
Inconclusive results are not listed. Calls of active or inactive are those of the source. Calls follow the shape of the dose curve; as a rule, active = well fitted inhibition curve with a large enough effect; inconclusive = small, poorly fitted or top-dose-only effect; inactive = no such curve, though single readings can be large or run the other way.
Possible outcomes: y for active, n for inactive

Compound	Assigned class
CCCCCCCCCCCCCCCC(=O)OC(CC(=O)O)C[N+](C)(C)C (centres undefined)	n
CCCCC/C=C\CC(O)/C=C/c1cccc(CC(O)CCCCO)n1 (centres undefined)	n
Fc1ccc(C(OCCCc2cnc[nH]2)c2ccc(F)cc2)cc1	y
O=C(O)[C@@H]1C[C@H](C(=O)O)N1	n
Ic1ccc(N2CCN(Cc3c[nH]c4ncccc34)CC2)cc1	n
CN1CCc2cc(NC(=O)Nc3cccnc3)ccc21	n
CN[C@H](CC(C)C)C(=O)N[C@H]1C(=O)N[C@@H](CC(N)=O)C(=O)N[C@H]2C(=O)N[C@H]3C(=O)N[C@H](C(=O)N[C@H](C(=O)O)c4cc(O)cc(O)c4-c4cc3ccc4O)[C@H](O)c3ccc(c(Cl)c3)Oc3cc2cc(c3O[C@@H]2O[C@H](CO)[C@@H](O)[C@H](O)[C@H]2O[C@H]2C[C@](C)(N)[C@H](O)[C@H](C)O2)Oc2ccc(cc2Cl)[C@H]1O	n
Cn1ncc(S(=O)(=O)Cc2ccccc2)c(Br)c1=O	n
CO/N=C(\C(=O)N[C@@H]1C(=O)N2C(C(=O)O)=C(COC(C)=O)CS[C@H]12)c1csc(N)n1 (stereo in doubt)	y
Clc1ccc(N2CCN(Cc3cc4ccccn4n3)CC2)cc1	n
CCc1c(C(=O)NCCc2ccc(N3CCCCC3)cc2)[nH]c2ccc(Cl)cc12	n
OCC1O[C@H]([S-])[C@H](O)[C@@H](O)[C@@H]1O.[Au+] (some centres undefined)	y
C#CCN1C(C)=C(C(=O)OC)C(c2cccc([N+](=O)[O-])c2)C(C(=O)OCC)=C1C (centres undefined)	n
CCCCCCCCCCCCCCCCCC(=O)OC(CC(=O)O)C[N+](C)(C)C (centres undefined)	n
OCC1O[C@H](O)C(Cl)C(O)C1O (some centres undefined)	n
C[N+](C)(CCCCCC[N+](C)(C)CCCN1C(=O)c2cccc3cccc(c23)C1=O)CCCN1C(=O)c2cccc3cccc(c23)C1=O	n
NCCNC(=O)c1ncsc1-c1cccc(F)c1	n
CC12C(=O)OC(=O)C1(C)C1CCC2O1 (centres undefined)	n
Cc1cc2c(cc1Cl)N(C(=O)Nc1ccc(Oc3cccnc3C)nc1)CC2	n
